inhibition at 100 µM by entry:
- Tested Target: SARS-CoV-2 Mac1 (Severe acute respiratory syndrome coronavirus 2, UniProt P0DTD1)
- Protocol Details: biochemical
- Condition: read-out: %inhibition
Structures can show the parent of a compound that is named as a salt.
Value Type: inhibition at 100 µM (%)

[[record]]
molecule = "CN1CCC(=C2c3ccccc3CCc3cccnc32)CC1 [Azatadine dimaleate]"
tested_target = "SARS-CoV-2 Mac1 (Severe acute respiratory syndrome coronavirus 2, UniProt P0DTD1)"
observed_result = 0

[[record]]
molecule = "CCCCC1C(=O)N(c2ccccc2)N(c2ccccc2)C1=O [Phenylbutazone]"
tested_target = "SARS-CoV-2 Mac1 (Severe acute respiratory syndrome coronavirus 2, UniProt P0DTD1)"
observed_result = 0

[[record]]
molecule = "Cc1cccc(C)c1NC1=NCCCS1 [Xylazine HCl]"
tested_target = "SARS-CoV-2 Mac1 (Severe acute respiratory syndrome coronavirus 2, UniProt P0DTD1)"
observed_result = 25.3

[[record]]
molecule = "CC(=O)O[C@]1(C(C)=O)CC[C@H]2[C@@H]3C[C@H](C)C4=CC(=O)C=C[C@]4(C)[C@@]3(F)[C@@H](O)C[C@@]21C [Fluorometholone Acetate]"
tested_target = "SARS-CoV-2 Mac1 (Severe acute respiratory syndrome coronavirus 2, UniProt P0DTD1)"
observed_result = 22.8

[[record]]
molecule = "CC(C)(O)CNc1nc(Nc2ccnc(C(F)(F)F)c2)nc(-c2cccc(C(F)(F)F)n2)n1 [Enasidenib (AG-221)]"
tested_target = "SARS-CoV-2 Mac1 (Severe acute respiratory syndrome coronavirus 2, UniProt P0DTD1)"
observed_result = 6.78

[[record]]
molecule = "CCOc1cc([C@@H](CS(C)(=O)=O)N2C(=O)c3cccc(NC(C)=O)c3C2=O)ccc1OC [Apremilast (CC-10004)]"
tested_target = "SARS-CoV-2 Mac1 (Severe acute respiratory syndrome coronavirus 2, UniProt P0DTD1)"
observed_result = 0

[[record]]
molecule = "C=CC[C@@H]1/C=C(\\C)C[C@H](C)C[C@H](OC)[C@H]2O[C@@](O)(C(=O)C(=O)N3CCCC[C@H]3C(=O)O[C@H](/C(C)=C/[C@@H]3CC[C@@H](O)[C@H](OC)C3)[C@H](C)[C@@H](O)CC1=O)[C@H](C)C[C@@H]2OC [Tacrolimus (FK506)]"
tested_target = "SARS-CoV-2 Mac1 (Severe acute respiratory syndrome coronavirus 2, UniProt P0DTD1)"
observed_result = 29.6


* * *

Listed here are compounds together with their documented inhibition at 100 µM.
- Tested Target: SARS-CoV-2 Mac1 (Severe acute respiratory syndrome coronavirus 2)
- Protocol Details: biochemical
- Condition: read-out: %inhibition
Counter-ions that a name gives are not always drawn. Bridge positions count the residues as written; N and C are the ends. Square brackets hold non-standard residues; d marks the D form. Peptide text beside a SMILES is read from it. * marks the point of attachment. Ileψ(thiazoline)Cys = CC[C@H](C)[C@H](N)C1=N[C@H](C(=O)*)CS1; dOrn = NCCC[C@@H](N)C(=O)O
Value Type: inhibition at 100 µM (%)

[[record]]
compound = "Nc1nc(N)nc(-c2cc(Cl)ccc2Cl)n1"
value_type = "inhibition at 100 µM"
observed_result = 22.5

[[record]]
compound = "CC(C)(C)C(=O)C(Oc1ccc(Cl)cc1)n1ccnc1 (stereo not drawn)"
value_type = "inhibition at 100 µM"
observed_result = 18.5

[[record]]
compound = "CC[C@H](C)[C@H](N)C1=N[C@H](C(=O)N[C@@H](CC(C)C)C(=O)N[C@H](CCC(=O)O)C(=O)N[C@H](C(=O)N[C@H]2CCCCNC(=O)[C@H](CC(N)=O)NC(=O)[C@@H](CC(=O)O)NC(=O)[C@H](Cc3cnc[nH]3)NC(=O)[C@@H](Cc3ccccc3)NC(=O)[C@H]([C@@H](C)CC)NC(=O)[C@@H](CCCN)NC2=O)[C@@H](C)CC)CS1 [Bacitracin] ({Ileψ(thiazoline)Cys}-L[dE]IK[dOrn]I[dF]H[dD]N; lactam 4-C)"
value_type = "inhibition at 100 µM"
observed_result = 0

[[record]]
compound = "CC1(C)S[C@@H]2[C@H](NC(=O)[C@H](N)c3ccccc3)C(=O)N2[C@H]1C(=O)OCOC(=O)[C@@H]1N2C(=O)C[C@H]2S(=O)(=O)C1(C)C"
value_type = "inhibition at 100 µM"
observed_result = 8.63

[[record]]
compound = "Cc1cccc(-c2nn3c(c2-c2ccnc4ccc(C(N)=O)cc24)CCC3)n1"
value_type = "inhibition at 100 µM"
observed_result = 0

[[record]]
compound = "CN(C)[C@@H]1C(=O)C(C(N)=O)=C(O)[C@@]2(O)C(=O)C3=C(O)c4c(O)cccc4[C@@](C)(O)C3[C@H](O)C12 (stereo partly drawn)"
value_type = "inhibition at 100 µM"
observed_result = 15.9

[[record]]
compound = "CC(=O)Oc1ccccc1C(=O)Nc1ncc([N+](=O)[O-])s1 [Nitazoxanide]"
value_type = "inhibition at 100 µM"
observed_result = 0

[[record]]
compound = "CC[C@H]1OC(=O)[C@H](C)[C@@H](O[C@H]2C[C@@](C)(OC)[C@@H](O)[C@H](C)O2)[C@H](C)[C@@H](O[C@@H]2O[C@H](C)C[C@H](N(C)C)[C@H]2O)[C@](C)(O)C[C@@H](C)[C@@H]2N[C@@H](COCCOC)O[C@H]([C@H]2C)[C@]1(C)O"
value_type = "inhibition at 100 µM"
observed_result = 28.8

[[record]]
compound = "CN(C)[C@@H]1C(O)=C(C(N)=O)C(=O)[C@@]2(O)C(O)=C3C(=O)c4c(O)ccc(Cl)c4[C@@H](O)[C@H]3C[C@@H]12 [Demeclocycline HCl]"
value_type = "inhibition at 100 µM"
observed_result = 4.3

[[record]]
compound = "CC(C)(C)C(=O)OCOP(=O)(COCCn1cnc2c(N)ncnc21)OCOC(=O)C(C)(C)C"
value_type = "inhibition at 100 µM"
observed_result = 37.1

[[record]]
compound = "CNS(=O)(=O)C[C@H]1CC[C@H](N(C)c2[nH]cnc3nccc2-3)CC1 [Oclacitinib?maleate]"
value_type = "inhibition at 100 µM"
observed_result = 0

[[record]]
compound = "O=C(O)CSc1nnc(Br)n1-c1ccc(C2CC2)c2ccccc12"
value_type = "inhibition at 100 µM"
observed_result = 2.49

[[record]]
compound = "CCCCC(F)(F)[C@@]1(O)CC[C@H]2[C@@H](CC(=O)[C@@H]2CCCCCCC(=O)O)O1"
value_type = "inhibition at 100 µM"
observed_result = 13.8

[[record]]
compound = "CC(=O)NCCCS(=O)(=O)O [Acamprosate Calcium]"
value_type = "inhibition at 100 µM"
observed_result = 0

[[record]]
compound = "COc1ncc(-c2ccc3nccc(-c4ccnnc4)c3c2)cc1NS(=O)(=O)c1ccc(F)cc1F"
value_type = "inhibition at 100 µM"
observed_result = 7.47

[[record]]
compound = "C=CC(=O)N1CCC(Oc2cc3c(Nc4ccc(Cl)c(Cl)c4F)ncnc3cc2OC)CC1 [Poziotinib (HM781-36B)]"
value_type = "inhibition at 100 µM"
observed_result = 0

[[record]]
compound = "c1ccc(-c2ccc(C(c3ccccc3)n3ccnc3)cc2)cc1 (stereo not drawn)"
value_type = "inhibition at 100 µM"
observed_result = 37

[[record]]
compound = "CN(C)[C@@H]1C(O)=C(C(N)=O)C(=O)[C@@]2(O)C(O)=C3C(=O)c4c(O)cccc4[C@@](C)(O)[C@H]3[C@H](O)[C@@H]12 [Oxytetracycline Dihydrate]"
value_type = "inhibition at 100 µM"
observed_result = 0

[[record]]
compound = "COCCCOc1cc(C[C@@H](C[C@H](N)[C@@H](O)C[C@H](C(=O)NCC(C)(C)C(N)=O)C(C)C)C(C)C)ccc1OC [Aliskiren Hemifumarate]"
value_type = "inhibition at 100 µM"
observed_result = 0

[[record]]
compound = "CCOc1cc2ncc(C#N)c(Nc3ccc(OCc4ccccn4)c(Cl)c3)c2cc1NC(=O)/C=C/CN(C)C"
value_type = "inhibition at 100 µM"
observed_result = 4.82

[[record]]
compound = "Clc1ccc(C(Cn2ccnc2)OCc2ccsc2Cl)c(Cl)c1 (stereo not drawn)"
value_type = "inhibition at 100 µM"
observed_result = 7.13

[[record]]
compound = "CC(C)Oc1ccc2c(=O)c(-c3ccccc3)coc2c1"
value_type = "inhibition at 100 µM"
observed_result = 0

[[record]]
compound = "O=c1[nH]c2ccccc2n1CCN1CCN(c2cccc(C(F)(F)F)c2)CC1"
value_type = "inhibition at 100 µM"
observed_result = 0

[[record]]
compound = "Clc1ccc(C(Cn2ccnc2)OCc2csc3c(Cl)cccc23)c(Cl)c1 (stereo not drawn) [Sertaconazole nitrate]"
value_type = "inhibition at 100 µM"
observed_result = 0

[[record]]
compound = "Cc1cn([C@H]2C=C[C@@H](CO)O2)c(=O)[nH]c1=O"
value_type = "inhibition at 100 µM"
observed_result = 0

[[record]]
compound = "CC(=O)NO [Acetohydroxamic acid]"
value_type = "inhibition at 100 µM"
observed_result = 0

[[record]]
compound = "CCCCCCCCCCCCCCCC[N+](C)(C)C [Cetrimonium Bromide (CTAB)]"
value_type = "inhibition at 100 µM"
observed_result = 25.1

